Target: 5-hydroxytryptamine receptor 1A (Homo sapiens) (UniProt P08908)
Sequence (P08908 whole entry): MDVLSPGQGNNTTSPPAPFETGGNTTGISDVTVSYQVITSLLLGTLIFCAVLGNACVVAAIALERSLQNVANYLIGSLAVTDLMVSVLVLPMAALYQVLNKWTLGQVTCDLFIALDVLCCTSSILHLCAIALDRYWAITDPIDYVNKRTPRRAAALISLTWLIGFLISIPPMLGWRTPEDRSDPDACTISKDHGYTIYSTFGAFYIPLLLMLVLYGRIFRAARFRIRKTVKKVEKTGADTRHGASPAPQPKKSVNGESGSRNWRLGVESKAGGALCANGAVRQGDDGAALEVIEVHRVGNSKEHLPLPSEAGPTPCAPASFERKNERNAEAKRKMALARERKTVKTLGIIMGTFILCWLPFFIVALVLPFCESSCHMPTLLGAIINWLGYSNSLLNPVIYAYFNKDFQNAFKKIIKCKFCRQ
Conditions: HeLa
Description: Effect on Forskolin-Stimulated cAMP formation, in HeLa cells transfected with the 5-HT 1A receptor at 1 uM concentration
outcome.measure: cAMP (pmol/well)

INSERT INTO measurements (compound, measurement_target, outcome_measure, quantitative_readout) VALUES
  ('COc1ccccc1N1CCN(CCC(Oc2cccc3ccccc23)c2ccsc2)CC1 (centres undefined)', '5-hydroxytryptamine receptor 1A (Homo sapiens) (UniProt P08908)', 'cAMP', 28.5),
  ('COc1ccccc1N1CCN(CCC(O)c2csc3ccccc23)CC1 (centres undefined)', '5-hydroxytryptamine receptor 1A (Homo sapiens) (UniProt P08908)', 'cAMP', 19.1),
  ('COc1ccccc1N1CCN(CC/C(=N\O)c2ccc(C)s2)CC1', '5-hydroxytryptamine receptor 1A (Homo sapiens) (UniProt P08908)', 'cAMP', 7.4),
  ('COc1ccccc1N1CCN(CCC(=O)c2csc3ccccc23)CC1', '5-hydroxytryptamine receptor 1A (Homo sapiens) (UniProt P08908)', 'cAMP', 27);

* * *

Test system: Mus musculus
Assay: Antidepressant-like activity in the forced swimming test (FST) in mice at 1 mg/kg dose; Antidepressant like activity
Type: functional
Tick Satisfied if Activity is 20% or greater. Tick Not satisfied if Activity is less than 20%.

INSERT INTO assay_data (compound, measurement_target, label) VALUES
  ('COc1ccccc1N1CCN(CC/C(=N\O)c2csc3ccccc23)CC1', 'Mus musculus', 'Satisfied'),
  ('COc1ccccc1N1CCN(CCC(Oc2cccc3ccccc23)c2ccsc2)CC1 (stereo unspecified)', 'Mus musculus', 'Satisfied'),
  ('COc1ccccc1N1CCN(CCC(O)c2csc3ccccc23)CC1 (stereo unspecified)', 'Mus musculus', 'Satisfied'),
  ('Oc1ccccc1N1CCN(CCC(O)c2ccc3ccccc3c2)CC1 (stereo unspecified)', 'Mus musculus', 'Not satisfied'),
  ('Oc1ccccc1N1CCN(CCC(O)c2csc3ccccc23)CC1 (stereo unspecified)', 'Mus musculus', 'Not satisfied'),
  ('COc1ccccc1N1CCN(CC/C(=N\O)c2ccc(C)s2)CC1', 'Mus musculus', 'Satisfied');

* * *

Target: 5-hydroxytryptamine receptor 1A (Rattus norvegicus, UniProt P19327)
Sequence (P19327 whole entry): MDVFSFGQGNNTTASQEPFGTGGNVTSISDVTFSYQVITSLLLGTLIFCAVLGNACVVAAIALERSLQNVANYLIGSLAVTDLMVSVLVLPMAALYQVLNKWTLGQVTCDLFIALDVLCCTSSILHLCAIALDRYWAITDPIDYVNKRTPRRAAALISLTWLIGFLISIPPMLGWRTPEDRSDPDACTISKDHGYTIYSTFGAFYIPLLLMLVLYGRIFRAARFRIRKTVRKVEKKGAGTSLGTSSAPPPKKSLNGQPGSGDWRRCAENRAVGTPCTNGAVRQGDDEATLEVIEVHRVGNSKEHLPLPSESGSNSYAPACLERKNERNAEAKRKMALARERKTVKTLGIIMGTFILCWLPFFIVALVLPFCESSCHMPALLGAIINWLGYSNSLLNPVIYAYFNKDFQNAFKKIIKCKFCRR
Test: Binding affinity to 5-hydroxytryptamine 1A receptor (5-HT 1A receptor, serotonin receptor) from rat cortex using [3H]8-OH-DPAT as radioligand
Settings: read-out: Ki
outcome.measure: Ki

INSERT INTO measurements (compound, result) VALUES
  ('OC(CCN1CCN(c2ccc(Cl)cc2)CC1)c1cccs1 (stereo not drawn)', '> 5 µM'),
  ('OC(CCN1CCN(c2ccc(Cl)cc2)CC1)c1ccc2ccccc2c1 (stereo not drawn)', '> 5 µM'),
  ('O=C(CCN1CCN(c2ccc(Cl)cc2)CC1)c1ccc2ccccc2c1', '> 5 µM');

* * *

Tested on: Mus musculus
Assay: Time-dependent effect on 8-OH-DPAT-induced hypothermia (change in body temperature) after 30 min, in mice at 0.5 mg/kg dose
Assay type: functional
Recorded Temperature change values for a group of molecules are listed next.
outcome.measure: Temperature change (°C)

INSERT INTO measurements (molecule, quantitative_readout) VALUES
  ('COc1ccccc1N1CCN(CCC(O)c2cc(C)sc2C)CC1 (centres undefined)', -2.13),
  ('Oc1ccccc1N1CCN(CCC(O)c2ccc3ccccc3c2)CC1 (centres undefined)', -2.03),
  ('Oc1ccccc1N1CCN(CCC(O)c2csc3ccccc23)CC1 (centres undefined)', -2.01),
  ('COc1ccccc1N1CCN(CCC(Oc2cccc3ccccc23)c2ccsc2)CC1 (centres undefined)', -1.35);
